- Study Target: T1, recombinant human Tau monomer, 2N4R isoform (amino acids 2-441) (human, UniProt P10636-8 2-441)
- T1 construct: range 2-441; N-terminal His-tag removed with TEV protease; also called monomeric Tau
- T1 sequence (P10636 other isoform, or with tags, fused parts or gaps limits assumed): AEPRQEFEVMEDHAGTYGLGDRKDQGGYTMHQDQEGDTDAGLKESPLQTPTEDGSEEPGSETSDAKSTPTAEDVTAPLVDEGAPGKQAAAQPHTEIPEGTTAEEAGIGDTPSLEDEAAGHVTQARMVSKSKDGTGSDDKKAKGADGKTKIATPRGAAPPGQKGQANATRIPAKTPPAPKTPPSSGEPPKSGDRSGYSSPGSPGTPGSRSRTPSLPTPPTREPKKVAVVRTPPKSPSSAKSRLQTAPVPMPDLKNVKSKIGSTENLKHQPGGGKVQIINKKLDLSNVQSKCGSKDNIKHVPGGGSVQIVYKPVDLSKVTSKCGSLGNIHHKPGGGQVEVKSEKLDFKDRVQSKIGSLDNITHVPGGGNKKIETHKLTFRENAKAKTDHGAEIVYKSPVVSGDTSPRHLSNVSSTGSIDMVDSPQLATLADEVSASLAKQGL
- Experiment: SPR, captured IgG, Tau monomer analyte, 1:1 model; fit-quality column: Yes
pKd: −log10 of the molar value.
Would you please tag the item Fulfilled when its pKd is 8 or above, and Not fulfilled when it is below?

>>> label("hu37D3.v29.5 (antibody, V domains shown) VH: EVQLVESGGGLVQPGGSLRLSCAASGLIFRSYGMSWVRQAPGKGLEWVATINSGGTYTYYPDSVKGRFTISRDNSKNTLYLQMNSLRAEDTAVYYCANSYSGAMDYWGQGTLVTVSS VL: EDVLTQTPLSLPVTPGQPASISCRSSQSIVHSNGHTYFEWYLQKPGQSPQLLIYKVSNRFSGVPDRFSGSGSGTDFTLKISRVEAEDVGVYYCFQGSLVPWTFGQGTKVEIK")
"Fulfilled"
>>> label("hu37D3.v28.A14 (antibody, V domains shown) VH: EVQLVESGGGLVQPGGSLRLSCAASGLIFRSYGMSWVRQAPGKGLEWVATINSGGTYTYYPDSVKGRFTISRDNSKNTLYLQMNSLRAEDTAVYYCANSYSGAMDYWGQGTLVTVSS VL: DDVMTQTPLSLPVTPGQPASISCRSSQSIVHSNGNTYLEWYLQKPGQSPQLLIYKVSNRFSGVPDRFSGSGSGTDFTLKISRVEAEDVGVYYCFQGSHVPWTFGQGTKVEIK")
"Not fulfilled"
>>> label("hu37D3.v28.E2 (antibody, V domains shown) VH: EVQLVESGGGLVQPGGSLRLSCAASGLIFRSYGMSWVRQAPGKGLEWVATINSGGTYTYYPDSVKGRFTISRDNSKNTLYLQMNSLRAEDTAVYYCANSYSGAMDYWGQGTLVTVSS VL: DDVLTQTPLSLPVTPGQPASISCRSSQSIVQSNGNTYFEWYLQKPGQSPQLLIYKVSNRFSGVPDRFSGSGSGTDFTLKISRVEAEDVGVYYCFQGSLVPWTFGQGTKVEIK")
"Not fulfilled"
>>> label("hu37D3.v28.A16 (antibody, V domains shown) VH: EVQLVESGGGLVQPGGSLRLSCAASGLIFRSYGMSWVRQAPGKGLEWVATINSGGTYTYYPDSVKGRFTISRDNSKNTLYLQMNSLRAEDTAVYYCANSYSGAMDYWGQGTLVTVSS VL: DVVLTQTPLSLPVTPGQPASISCRSSQSIVHSNGNTYFEWYLQKPGQSPQLLIYKVSNRFSGVPDRFSGSGSGTDFTLKISRVEAEDVGVYYCFQGSLVPWTFGQGTKVEIK")
"Fulfilled"
